Data provenance: the supplement of paper PMC12783771

B1: library; numbered along this chain (parent)
chain: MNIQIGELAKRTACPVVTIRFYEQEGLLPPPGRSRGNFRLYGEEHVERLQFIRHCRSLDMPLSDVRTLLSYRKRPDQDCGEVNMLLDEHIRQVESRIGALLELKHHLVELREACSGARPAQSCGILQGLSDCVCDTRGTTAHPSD

Variants of: B1
Assay: sfGFP reporter fluorescence (15 h) (µM FITC); higher = stronger transcriptional activation
Conditions: library round: Round 0; ligand: 30 µM Zn
Catalogue of variants with associated sfGFP reporter fluorescence
// return just the number, without any unit appended

mutation.string | sfGFP reporter fluorescence
I97M | 0.281
M60V | 1.05

input: Can you share its sfGFP reporter fluorescence? I mean this variant: R39C
output: 0.057

input: Can you share its sfGFP reporter fluorescence? I mean this variant: D64P
output: 0.162

input: Can you share its sfGFP reporter fluorescence? I mean this variant: L28Q
output: 0.059

input: Can you share its sfGFP reporter fluorescence? I mean this variant: Y22K
output: 0.0614
